Reported ED50 by item:
- System: central amphetamine-induced hypothermia
- experimental.protocol: antagonism to central amphetamine-induced hypothermia
- condition: Mus musculus, po, read-out: Amphetamine antagonism (ED50)
Please respond with the number in mg/kg and leave the unit unwritten.

Some molecules with recorded ED50:
CN1C[C@H](CNC2=CC(=O)CC2)C[C@@H]2c3cccc4c3c(cn4C)C[C@H]21 ... 1.8
CC(=O)C=C(C)OC[C@@H]1C[C@@H]2c3cccc4[nH]cc(c34)C[C@H]2N(C)C1 ... 0.023
CSc1[nH]c2cccc3c2c1C[C@@H]1[C@@H]3C[C@@H](COC=CC(C)=O)CN1C ... 2.5
CCCN1C[C@H](COC=CC(C)=O)C[C@@H]2c3cccc4[nH]cc(c34)C[C@H]21 ... 2.4

Prompt line: Name the reported ED50 value associated with the molecule CO[C@]12C[C@@H](COC3=CC(=O)CC3)CN(C)[C@@H]1Cc1cn(C)c3cccc2c13
Response line: 1.8

meta.source: patent US4382940A
